molecular target: full-length recombinant human or mouse PAD4 (Example 4; which of the two is not told for the result); assay: cell-based or functional assay
readout-kind: Relative citrullination activity

# binder, Relative citrullination activity
data = [
    ("E9 (antibody, IgG1, V domains shown, Chicken variable regions in mouse chimeric antibody (IgG1) expression vectors; also called anti-PAD4 antibody E9; A11 etc) VH: AVTLDESGGGLQTPGGTLSLVCKGSGFTFSSYGMGWMRQAPGKGLEYVAAIRNDGSWTGYGSAVKGRATISRDNGQSTVRLQLNNLRAEDTATYYCAKTSGSSGGSVDAWGHGTEVIVS VL: ASTQPSSVSANLGGTVEITCSGGGRYYYGWYQQKSPGSAPVTVIYANDKRPSDIPSRFSGSKSGSTGTLTITGVQAEDEAVYFCGSAETSSYVFGAGTTLTVL", "59 relative to PBS = 100"),
]

binder G9 (antibody, IgG1, V domains shown, Chicken variable regions in mouse chimeric antibody (IgG1) expression vectors; also called anti-PAD4 antibody G9; A11 etc) VH: AVTLDESGGGLQTPGGALSLVCKASGFTFSTYAMGWMRQAPGKGLEYVAAIRNDGSWTGYGAAVKGRATILRDNGQSTVRLQLSNLRAEDTGTYYCAKYTGSSGGSIGAWGHGTEVIVS VL: AVTQPASVSANLGGTVEITCSGGGRYYYGWYQQKSPGSAPVTVIYANDKRPSDIPSRFSGSKSGSTGTLTITGVQAEDEAVYFCGSAETSSYVFGAGTTLTVL , Relative citrullination activity observed: 68 relative to PBS = 100
